test: breast CSC-like cell growth inhibition – CellTiter-Glo luminescence, powder samples, set 4, dose response (AID 504449); details: HMLE_shECad breast CSC viability, CellTiter-Glo, 72 h; at 30 µM (top of the series)
Records with an inconclusive call do not appear.
Please go through the items and note down their activity change, negative = inhibition.
Answers are plain numbers, in %.

Cc1ccc2cc(C(=O)NC3=NCCS3)n(C)c2c1 | -17.3
C/C(=C\c1ccccc1)C(=O)NC1=NCCS1 | 8.28
O=C(NC1=NCCS1)/C(F)=C/c1ccccc1 | 10.8
O=C(COc1ccc(Cl)cc1Cl)N/N=C/c1ccn[nH]1 | 1.84
O=C(COc1c(Cl)cc(Cl)cc1Cl)N/N=C/c1ccn[nH]1 | 6.67

Fill in activity change, negative = inhibition for each of the 2 compounds listed.
1. COc1cccc(/C=C/C(=O)NC2=NCCS2)c1
2. O=C(Nc1nccs1)c1ccc(COc2ccccc2)o1

1: -21; 2: 6.69

====

Please go through the items and note down their activity change, negative = inhibition.
assay: breast CSC-like cell growth inhibition – CellTiter-Glo luminescence, powder samples, set 4, dose response (AID 504449); conditions: HMLE_shECad breast CSC viability, CellTiter-Glo, 72 h; at 30 µM (top of the series)
Inconclusive results are not listed.
One number for each entry, in %.

CC(C)c1ccc(/C=C/C(=O)NCc2ccccc2)cc1 | -6.44
O=S(=O)(/C=C/c1ccccc1)NC1=NCCS1 | 14.4
C(=C\c1ccccc1)/CNC1=NCCS1 | 10.6
CC(C)c1ccc(/C=C/C(=O)N2CCOCC2)cc1 | 17.8

Fill in activity change, negative = inhibition for each of the 8 compounds listed.
1. COc1ccccc1OCC(=O)N/N=C/c1ccc[nH]1
2. O=C(Nc1ccccn1)c1ccc(COc2ccccc2)o1
3. O=C(c1ccc(COc2ccccc2)o1)N1CCOCC1
4. O=C(/C=C/c1ccc(C(F)(F)F)cc1)NC1=NCCS1
5. O=C(N/N=C/c1ccn[nH]1)c1cc2ccccc2o1
6. Cc1csc(NC(=O)c2ccc(CO)o2)n1
7. Cc1cc(C)c(/C=N/NC(=O)COc2c(Cl)cc(Cl)cc2Cl)[nH]1
8. Cn1ccnc1NC(=O)c1ccc(COc2ccccc2)o1

1: 9.18; 2: -28.5; 3: 2; 4: -1.72; 5: 26.2; 6: -1.83; 7: -14.5; 8: -15.5
